# target_or_system: Human recombinant MAO-A (hMAO-A) (Homo sapiens)
# Construct: purchased Sigma-Aldrich; host or cells: insect cells
# Sequence (P21397 whole entry): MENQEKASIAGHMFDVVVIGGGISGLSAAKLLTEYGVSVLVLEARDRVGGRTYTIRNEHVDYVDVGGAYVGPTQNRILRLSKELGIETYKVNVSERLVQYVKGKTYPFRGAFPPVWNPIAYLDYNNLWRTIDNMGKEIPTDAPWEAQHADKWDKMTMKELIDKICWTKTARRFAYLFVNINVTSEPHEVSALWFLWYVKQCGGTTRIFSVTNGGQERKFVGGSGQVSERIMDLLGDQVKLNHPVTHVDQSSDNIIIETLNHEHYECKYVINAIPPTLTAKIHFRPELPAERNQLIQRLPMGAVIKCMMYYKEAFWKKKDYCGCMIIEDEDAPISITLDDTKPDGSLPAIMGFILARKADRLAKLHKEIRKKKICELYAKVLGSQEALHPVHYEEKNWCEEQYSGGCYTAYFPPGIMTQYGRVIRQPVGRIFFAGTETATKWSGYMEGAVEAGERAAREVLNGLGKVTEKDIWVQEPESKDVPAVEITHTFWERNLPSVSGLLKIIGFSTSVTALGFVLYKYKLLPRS
# protocol: MAO-A inhibition assay (Amplex Red fluorescence, p-tyramine substrate)
# Format: biochemical
assay_metric: inhibition at 10 µM (%)
Express the result in % but write the number alone.

[[record]]
compound = "O=C(Nc1ccc(I)cc1)c1ccc2[nH]ccc2c1 [Compound 8a, N-(4-iodophenyl)-1H-indole-5-carboxamide]"
assay_metric = "inhibition at 10 µM"
val = 17.2


Read the next record carefully.
Query: Assign inhibition at 10 µM to the following record: O=C(Nc1ccc(Br)cc1)c1ccc2[nH]ccc2c1
Result: 15.1
